system under test: Cholinesterase (Equus caballus, UniProt P81908)
Sequence (P81908 whole entry): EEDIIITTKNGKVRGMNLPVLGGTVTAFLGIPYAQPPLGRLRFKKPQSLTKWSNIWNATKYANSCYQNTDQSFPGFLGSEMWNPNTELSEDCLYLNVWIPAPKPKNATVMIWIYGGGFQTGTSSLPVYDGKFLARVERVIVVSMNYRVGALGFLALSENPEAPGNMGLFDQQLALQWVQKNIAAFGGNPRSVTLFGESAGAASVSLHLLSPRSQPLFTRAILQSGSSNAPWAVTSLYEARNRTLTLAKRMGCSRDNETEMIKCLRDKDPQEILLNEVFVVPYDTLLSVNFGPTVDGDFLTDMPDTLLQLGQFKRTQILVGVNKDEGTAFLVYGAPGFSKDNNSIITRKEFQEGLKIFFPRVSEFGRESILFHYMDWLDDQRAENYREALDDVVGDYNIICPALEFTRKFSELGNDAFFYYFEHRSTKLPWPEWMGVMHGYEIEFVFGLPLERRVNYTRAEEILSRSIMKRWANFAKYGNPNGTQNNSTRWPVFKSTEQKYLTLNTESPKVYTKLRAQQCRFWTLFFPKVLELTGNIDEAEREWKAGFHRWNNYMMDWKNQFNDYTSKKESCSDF
protocol text: Inhibition of equine serum BChE using butyrylthiocholine iodide as substrate after 20 mins measured for 1 min interval for 30 mins by Ellman's method
pKi: −log10 of the molar value.
The compounds listed here are annotated with their pKi.
attribute measured: pKi

INSERT INTO assay_data (compound, limit_sign, measured) VALUES
  ('COC(=O)[C@@]1(C)CC[C@]2(C)CC[C@]3(C)C(=CC(=O)[C@@H]4[C@@]5(C)CC[C@H](OC(=O)[C@@H](N)CSCc6ccccc6)C(C)(C)[C@@H]5CC[C@]43C)[C@@H]2C1', '<', 4.00),
  ('CC1(C)[C@@H](O)CC[C@]2(C)[C@H]3C(=O)C=C4[C@@H]5C[C@@](C)(C(=O)NCCCCN)CC[C@]5(C)CC[C@@]4(C)[C@]3(C)CC[C@@H]12', '=', 4.13),
  ('CC1(C)[C@@H](O)CC[C@]2(C)[C@H]3C(=O)C=C4[C@@H]5C[C@@](C)(C(=O)NCCN)CC[C@]5(C)CC[C@@]4(C)[C@]3(C)CC[C@@H]12', '<', 4.00),
  ('CC1(C)[C@@H](O)CC[C@]2(C)[C@H]3C(=O)C=C4[C@@H]5C[C@@](C)(C(=O)NCCCN)CC[C@]5(C)CC[C@@]4(C)[C@]3(C)CC[C@@H]12', '=', 5.27),
  ('COC(=O)[C@@]1(C)CC[C@]2(C)CC[C@]3(C)C(=CC(=O)[C@@H]4[C@@]5(C)CC[C@H](OC(=O)[C@@H](N)CCCCN)C(C)(C)[C@@H]5CC[C@]43C)[C@@H]2C1', '<', 4.00);

---

Listed here are compounds together with their documented pKi.
system under test: UniProtKB O42275
Sequence (O42275 whole entry): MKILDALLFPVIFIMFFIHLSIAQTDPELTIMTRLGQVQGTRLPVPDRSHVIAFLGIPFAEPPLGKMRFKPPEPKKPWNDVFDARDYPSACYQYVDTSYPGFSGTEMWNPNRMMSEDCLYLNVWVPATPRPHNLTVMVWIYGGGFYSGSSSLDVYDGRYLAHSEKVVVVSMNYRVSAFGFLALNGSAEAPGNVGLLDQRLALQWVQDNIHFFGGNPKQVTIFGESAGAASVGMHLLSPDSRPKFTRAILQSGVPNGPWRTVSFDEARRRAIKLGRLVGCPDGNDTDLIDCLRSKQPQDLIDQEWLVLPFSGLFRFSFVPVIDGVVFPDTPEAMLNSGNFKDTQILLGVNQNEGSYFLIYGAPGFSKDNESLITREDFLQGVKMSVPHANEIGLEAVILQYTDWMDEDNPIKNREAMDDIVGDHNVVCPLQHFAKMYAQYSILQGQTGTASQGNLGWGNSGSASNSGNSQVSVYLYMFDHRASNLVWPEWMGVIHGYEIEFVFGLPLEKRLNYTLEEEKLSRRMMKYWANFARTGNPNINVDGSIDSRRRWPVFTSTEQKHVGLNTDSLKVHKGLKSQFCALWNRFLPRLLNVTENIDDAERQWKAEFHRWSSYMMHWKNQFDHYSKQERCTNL
pKi: −log10 of the molar value.
attribute measured: pKi

INSERT INTO assay_data (compound, limit_sign, measured) VALUES
  ('CC1(C)[C@@H](O)CC[C@]2(C)[C@H]3C(=O)C=C4[C@@H]5C[C@@](C)(C(=O)OC/C=C/CBr)CC[C@]5(C)CC[C@@]4(C)[C@]3(C)CC[C@@H]12', '=', 4.53),
  ('CC1(C)[C@@H](OC(=O)CN)CC[C@]2(C)[C@H]3C(=O)C=C4[C@@H]5C[C@@](C)(C(=O)O)CC[C@]5(C)CC[C@@]4(C)[C@]3(C)CC[C@@H]12', '<', 4.00),
  ('COC(=O)[C@@]1(C)CC[C@]2(C)CC[C@]3(C)C(=CC(=O)[C@@H]4[C@@]5(C)CC[C@H](OC(=O)[C@@H](N)CCN)C(C)(C)[C@@H]5CC[C@]43C)[C@@H]2C1', '=', 4.73),
  ('CC1(C)[C@@H](O)CC[C@]2(C)[C@H]3C(=O)C=C4[C@@H]5C[C@@](C)(C(=O)OCCCCCCBr)CC[C@]5(C)CC[C@@]4(C)[C@]3(C)CC[C@@H]12', '=', 4.89);

---

protocol text: Selectivity ratio of Ki for Electrophorus electricus AChE to Ki for equine serum BChE
Overview of reported Ratio Ki across a group of compounds:
attribute measured: Ratio Ki

INSERT INTO assay_data (compound, attribute_measured, measured) VALUES
  ('CCOC(=O)[C@@]1(C)CC[C@]2(C)CC[C@]3(C)C(=CC(=O)[C@@H]4[C@@]5(C)CC[C@H](OC(=O)[C@H](N)Cc6c[nH]c7ccccc67)C(C)(C)[C@@H]5CC[C@]43C)[C@@H]2C1', 'Ratio Ki', '< 0.12'),
  ('COC(=O)[C@@]1(C)CC[C@]2(C)CC[C@]3(C)C(=CC(=O)[C@@H]4[C@@]5(C)CC[C@H](OC(=O)[C@@H](C)N)C(C)(C)[C@@H]5CC[C@]43C)[C@@H]2C1', 'Ratio Ki', '< 0.18'),
  ('COC(=O)[C@@]1(C)CC[C@]2(C)CC[C@]3(C)C(=CC(=O)[C@@H]4[C@@]5(C)CC[C@H](OC(=O)[C@@H](N)CCN)C(C)(C)[C@@H]5CC[C@]43C)[C@@H]2C1', 'Ratio Ki', '< 0.19'),
  ('CC1(C)[C@@H](O)CC[C@]2(C)[C@H]3C(=O)C=C4[C@@H]5C[C@@](C)(C(=O)OCCCCCCBr)CC[C@]5(C)CC[C@@]4(C)[C@]3(C)CC[C@@H]12', 'Ratio Ki', '< 0.13'),
  ('COC(=O)[C@@]1(C)CC[C@]2(C)CC[C@]3(C)C(=CC(=O)[C@@H]4[C@@]5(C)CC[C@H](OC(=O)[C@@H](N)CCC(=O)OCc6ccccc6)C(C)(C)[C@@H]5CC[C@]43C)[C@@H]2C1', 'Ratio Ki', '< 0.16');

Hello, the source for this data is ChEMBL document CHEMBL3286281, in case you need it.
